- ASSAY_SYSTEM: activated protein C (APC) (human)
No end group written: not given here.
ATTRIBUTE_MEASURED: Inhibition of APC (%), Xa-1 stage coagulation assay in NHP, 500 µM peptide

>  <BINDER>
DTLAFWSKHVDGDQC-NH2 (also: native Cys substituted by Ser or Gly, which position not given here) [synthetic peptide PC36-50]

>  <UNIT_ANNOTATION>
%

>  <RESULT>
0

$$$$
>  <BINDER>
KHVDGDQCLVLPLEH-NH2 (also: native Cys substituted by Ser or Gly, which position not given here) [synthetic peptide PC43-57]

>  <UNIT_ANNOTATION>
%

>  <RESULT>
0

$$$$
